test system: NCI-H460 lung; test: NCI tumour cell line growth inhibition, 48 h; in the data active = GI50 below about 0.43 µM; inactive = the rest
Can you answer with just one of these options? 1 = active, -1 = inactive

See these solved cases before continuing.
compound	label value
C=C1CC2(OC1=O)C(=O)N(C)c1ccc(I)cc12 (stereo unspecified)	-1
CCOC(=O)/C=C/C1=C(c2ccsc2)c2ccc(OC)cc2CC1	-1
O=c1c2c([nH]c3ccccc13)CCCC2	-1
CCOC(=O)c1ccc2c(c1)[n+](=O)c(C(=O)C1CCCS1)c(C(F)(F)F)n2[O-] (stereo unspecified)	1
O=C1NC(=O)/C(=C/c2c(Cl)nc3sccn23)S1	-1

Inquiry: Can you look up the reported call for COc1ccc2c(c1)oc1c(C)c3c(c(C)c12)C(=O)N(N)C3=O for me?
Reply text: -1

----------
tested on: MALME-3M melanoma; assay: NCI tumour cell line growth inhibition, 48 h; in the data active = GI50 below about 0.43 µM; inactive = the rest
Response enum: YES for active, NO for inactive

Consider the worked cases shown below.
molecule	label value
Nc1ccccc1C#C/C=C\C#Cc1cnccn1	NO
CCOC(=O)c1ccc2c(c1)[n+](=O)c(C(=O)C1CCCS1)c(C(F)(F)F)n2[O-] (stereo not given)	NO
COc1cc(C(=O)c2c(-c3ccccc3)oc3c(OC)cccc23)cc(OC)c1O	NO
O=C(Nc1cccc(-n2ccc3c(NC(=O)c4ccccc4)nccc32)c1)Nc1ccc(Cl)c(C(F)(F)F)c1	NO

Inquiry: Entry CCOC(=O)/C=C/C1=C(c2ccsc2)c2ccc(OC)cc2CC1 : call = ?
Reply text: YES

Inquiry: // outcome(item) with item = N#C/C(=C\c1cn(Cc2ccccc2)c2ccccc12)C(=O)Nc1ncc(Cc2ccccc2Cl)s1
Reply text: NO

----------
# TGI listing for each entry below
system: SN12C renal; test: NCI tumour cell line growth inhibition, 48 h
Number only, in µM; omit the unit.

Guide cases for TGI, answers given:
chemical smiles	measured target	measured value
CC(C)/C(Cl)=N\OC(=O)Nc1ccc(F)cc1	SN12C renal	16.7
COc1cc(/C=C/C(=O)Nc2ccc3c(c2)/C(=C\c2cccn2C)C(=O)N3)cc(OC)c1OC	SN12C renal	59.8
CC(=O)Oc1ccc2[nH]c3c(C)c4cccc-4ccc3c2c1	SN12C renal	4.49

Sample CCCC(=O)N(C(=O)CCC)C1=C(Cl)C(=O)c2ccccc2C1=O ; TGI observed: 52.5

----------
tested on: MDA-MB-435; experiment: NCI tumour cell line growth inhibition, 48 h
Items are presented alongside their recorded TGI.

Below: 5 molecules and their reported TGI.
molecule	observable	measured value
CCC1CC(C)C(O)/C=C/C=C/CC(C)OC(=O)CC(O)C(OC)C1OC1OC(C)CC(O)(C(C)=O)C1O (centres undefined)	TGI	> 100 µM
COC1=CC(=O)c2c(ccc3ncnc(N)c23)C1=O	TGI	0.646 µM
COc1cccc(/C=C/c2ccc(S(N)(=O)=O)cc2)c1	TGI	> 100 µM
CNC(=O)C(CCc1ccccc1)NC(=O)C(CC(=O)NO)CC(C)C (centres undefined)	TGI	> 25 µM
CC1(C)CCC2(CC1)N[C@@H](C(=O)N[C@@H]1CC[C@@H](C(N)=O)OC1)[C@H](c1ccnc(Cl)c1F)[C@]21C(=O)Nc2cc(Cl)ccc21	TGI	6.22 µM

Value of measured TGI for the entry O=C(Nc1ccc(-n2cc(-c3ccncc3)c(-c3ccc(O)c(Cl)c3)n2)cc1)c1cc(C(F)(F)F)cc(C(F)(F)F)c1 : > 25 µM

Please fill in: TGI reported for O=C(C=P(c1ccccc1)(c1ccccc1)c1ccccc1)c1ccc(-c2cccc([N+](=O)[O-])c2)cc1 = 5.4 µM

Quick note, TGI for COc1ncc(-c2ccc3nccc(C#CCCCCC(=O)O)c3c2)cc1NS(=O)(=O)c1ccc(F)cc1F landed at > 100 µM
